- PROTOCOL_SUMMARY: in vivo
- DETAILS: male, rat, sc, pH 4
METRIC: Tmax (min)
Numbers only, in min.

Reported Tmax for "NC(=O)CC[C@@H]1NC(=O)[C@H](Cc2ccccc2)NC(=O)[C@H](Cc2ccc(O)cc2)NC(=O)CCSSC[C@@H](C(=O)N2CCC[C@H]2C(=O)N[C@H](CCCN=C(N)N)C(=O)NCC(N)=O)NC(=O)[C@H](CC(N)=O)NC1=O" : what is it? 8.8
